measurementNotes: solvent given as SMILES
measurementConditions: in CCO
Measured fluorescence lifetime by item
Your answer is read as ns, so omit the unit and give the number.

INSERT INTO assay_data (compound, resultnumber) VALUES
  ('Cc1ccc(C2=C3C=C(I)C=[N+]3[B-](F)(F)n3c2cc(I)c3I)cc1', 0.196),
  ('CCOC(=O)C1CC(c2c(C#N)c(C)nn2-c2ccccc2)=CN1c1ccc(Br)cc1 (configuration not stated)', 3.66),
  ('Cc1nn(-c2ccccc2)c(C2=NN(c3ccc(Br)cc3)[C@@H](c3ccccc3)[C@@H]2c2ccccc2)c1C#N', 4.53),
  ('O=C1c2ccccc2-c2ccccc21', 1.9),
  ('N#Cc1cccc2[nH]ccc12', 5.7),
  ('c1ccc(-c2cc(-c3ccc(-c4nc(-c5ccccn5)c(-c5ccccn5)[nH]4)cc3)cc(-c3ccccn3)n2)nc1', 2.04);

Now for another entry.
Kindly note the recorded fluorescence lifetime for CN(C)c1ccc(/C=C/C=C/c2ccc(C#N)cc2)cc1 , which is 0.51
